Target: α2A receptor (Homo sapiens, UniProt P08913)
Construct: host or cells: LM(tk-) cells, line L-α2A
Sequence (P08913 whole entry): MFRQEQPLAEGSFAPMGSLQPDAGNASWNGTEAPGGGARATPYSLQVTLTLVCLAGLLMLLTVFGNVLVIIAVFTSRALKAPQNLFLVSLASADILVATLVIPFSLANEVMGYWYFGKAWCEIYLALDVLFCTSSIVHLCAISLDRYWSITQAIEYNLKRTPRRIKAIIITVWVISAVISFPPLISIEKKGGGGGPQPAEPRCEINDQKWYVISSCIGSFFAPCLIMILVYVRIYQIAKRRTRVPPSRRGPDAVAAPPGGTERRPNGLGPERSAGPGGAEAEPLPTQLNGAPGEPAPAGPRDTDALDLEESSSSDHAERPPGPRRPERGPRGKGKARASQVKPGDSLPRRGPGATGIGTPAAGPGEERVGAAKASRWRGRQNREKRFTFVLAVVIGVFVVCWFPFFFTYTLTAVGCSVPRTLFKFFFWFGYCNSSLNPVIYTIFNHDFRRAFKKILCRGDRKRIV
Test: Competition binding, [3H]rauwolscine, human α2A receptor
Conditions: [3H]rauwolscine, LM(tk-) cell line L-α2A; SEM and n in lines below; read-out: pKi alpha-2 2a (converted)
Structures can show the parent of a compound that is named as a salt.
Listing of recorded Ki by entry.
metric: Ki (nM)

• COC(=O)C1=C(C)NC(C)=C(C(=O)NCCCN2CCc3cc(OC)c(OC)cc3C2)C1c1ccc([N+](=O)[O-])cc1 (stereo not drawn) [Example 57, hydrochloride hydrate] = 195
• CC1=C(C(N)=O)C(c2ccc([N+](=O)[O-])cc2)C(C(=O)NCCCN2CCC(c3ccccc3)CC2)=C(C)N1 (stereo not drawn) [Example 60] = 5.5
• CCC1=C(C(=O)NC2CCN(Cc3ccccc3)CC2)C(c2ccc([N+](=O)[O-])cc2)C(C(=O)OC)=C(C)N1 (stereo not drawn) [Example 75, hydrochloride] = 2880

###

Biological target: L-type calcium channel (Rattus norvegicus)
Construct: membrane fragments of rat cardiac muscle; from tissue; host or cells: rat cardiac muscle membranes
Sequence (P22002 whole entry, other chains not shown, the tested form may be a part): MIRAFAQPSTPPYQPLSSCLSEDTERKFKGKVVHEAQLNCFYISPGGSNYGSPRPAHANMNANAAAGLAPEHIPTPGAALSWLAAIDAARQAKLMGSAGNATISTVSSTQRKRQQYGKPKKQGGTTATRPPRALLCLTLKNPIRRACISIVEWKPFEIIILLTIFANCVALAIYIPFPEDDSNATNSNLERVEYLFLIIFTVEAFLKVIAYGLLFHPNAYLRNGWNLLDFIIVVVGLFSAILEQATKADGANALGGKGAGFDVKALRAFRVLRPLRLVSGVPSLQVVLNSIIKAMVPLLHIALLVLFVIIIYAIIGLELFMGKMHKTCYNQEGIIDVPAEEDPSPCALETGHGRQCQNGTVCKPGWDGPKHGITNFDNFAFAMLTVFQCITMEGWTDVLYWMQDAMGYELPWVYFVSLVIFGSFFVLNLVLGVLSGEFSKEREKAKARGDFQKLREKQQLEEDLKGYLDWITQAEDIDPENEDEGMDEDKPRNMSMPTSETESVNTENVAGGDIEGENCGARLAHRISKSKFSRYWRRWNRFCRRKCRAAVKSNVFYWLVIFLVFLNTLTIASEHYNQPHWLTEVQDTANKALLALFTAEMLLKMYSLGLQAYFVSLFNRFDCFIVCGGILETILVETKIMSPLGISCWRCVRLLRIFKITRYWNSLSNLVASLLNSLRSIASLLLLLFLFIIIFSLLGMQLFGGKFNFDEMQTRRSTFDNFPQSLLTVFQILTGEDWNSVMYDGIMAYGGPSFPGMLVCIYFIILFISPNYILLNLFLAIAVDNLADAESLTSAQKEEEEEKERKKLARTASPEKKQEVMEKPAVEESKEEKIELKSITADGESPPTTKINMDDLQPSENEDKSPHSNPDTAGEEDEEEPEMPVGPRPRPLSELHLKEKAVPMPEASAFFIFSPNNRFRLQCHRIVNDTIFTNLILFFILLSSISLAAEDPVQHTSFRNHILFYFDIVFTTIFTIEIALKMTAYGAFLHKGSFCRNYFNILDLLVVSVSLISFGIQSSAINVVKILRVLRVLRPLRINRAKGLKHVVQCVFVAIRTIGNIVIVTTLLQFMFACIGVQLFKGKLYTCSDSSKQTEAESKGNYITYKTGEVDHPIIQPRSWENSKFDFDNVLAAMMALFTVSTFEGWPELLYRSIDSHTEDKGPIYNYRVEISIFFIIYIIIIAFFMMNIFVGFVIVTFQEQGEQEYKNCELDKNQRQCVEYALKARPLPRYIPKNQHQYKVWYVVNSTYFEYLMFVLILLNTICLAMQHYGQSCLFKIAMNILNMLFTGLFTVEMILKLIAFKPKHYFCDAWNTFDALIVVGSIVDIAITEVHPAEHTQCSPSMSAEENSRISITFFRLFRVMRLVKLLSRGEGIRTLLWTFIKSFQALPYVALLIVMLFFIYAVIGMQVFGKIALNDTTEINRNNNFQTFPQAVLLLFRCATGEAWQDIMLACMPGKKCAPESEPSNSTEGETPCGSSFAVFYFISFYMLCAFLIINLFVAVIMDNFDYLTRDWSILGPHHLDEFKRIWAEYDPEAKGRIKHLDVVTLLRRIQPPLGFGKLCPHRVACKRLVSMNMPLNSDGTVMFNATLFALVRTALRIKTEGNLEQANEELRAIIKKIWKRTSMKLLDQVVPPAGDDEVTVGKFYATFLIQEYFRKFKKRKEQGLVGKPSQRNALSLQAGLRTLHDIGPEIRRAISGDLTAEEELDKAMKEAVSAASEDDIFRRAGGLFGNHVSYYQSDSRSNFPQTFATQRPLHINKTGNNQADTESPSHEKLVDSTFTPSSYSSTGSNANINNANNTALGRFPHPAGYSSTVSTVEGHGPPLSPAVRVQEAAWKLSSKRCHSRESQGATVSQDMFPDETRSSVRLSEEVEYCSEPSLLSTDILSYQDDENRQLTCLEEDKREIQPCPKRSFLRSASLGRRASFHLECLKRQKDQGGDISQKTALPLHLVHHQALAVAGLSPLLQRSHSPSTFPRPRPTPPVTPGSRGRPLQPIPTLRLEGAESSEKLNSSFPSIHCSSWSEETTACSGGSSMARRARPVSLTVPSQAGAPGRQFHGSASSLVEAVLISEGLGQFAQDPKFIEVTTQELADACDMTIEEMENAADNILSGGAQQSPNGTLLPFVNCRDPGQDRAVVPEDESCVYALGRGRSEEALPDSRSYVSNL
Sequence (P54290 25-944 partner limits assumed, other chains not shown): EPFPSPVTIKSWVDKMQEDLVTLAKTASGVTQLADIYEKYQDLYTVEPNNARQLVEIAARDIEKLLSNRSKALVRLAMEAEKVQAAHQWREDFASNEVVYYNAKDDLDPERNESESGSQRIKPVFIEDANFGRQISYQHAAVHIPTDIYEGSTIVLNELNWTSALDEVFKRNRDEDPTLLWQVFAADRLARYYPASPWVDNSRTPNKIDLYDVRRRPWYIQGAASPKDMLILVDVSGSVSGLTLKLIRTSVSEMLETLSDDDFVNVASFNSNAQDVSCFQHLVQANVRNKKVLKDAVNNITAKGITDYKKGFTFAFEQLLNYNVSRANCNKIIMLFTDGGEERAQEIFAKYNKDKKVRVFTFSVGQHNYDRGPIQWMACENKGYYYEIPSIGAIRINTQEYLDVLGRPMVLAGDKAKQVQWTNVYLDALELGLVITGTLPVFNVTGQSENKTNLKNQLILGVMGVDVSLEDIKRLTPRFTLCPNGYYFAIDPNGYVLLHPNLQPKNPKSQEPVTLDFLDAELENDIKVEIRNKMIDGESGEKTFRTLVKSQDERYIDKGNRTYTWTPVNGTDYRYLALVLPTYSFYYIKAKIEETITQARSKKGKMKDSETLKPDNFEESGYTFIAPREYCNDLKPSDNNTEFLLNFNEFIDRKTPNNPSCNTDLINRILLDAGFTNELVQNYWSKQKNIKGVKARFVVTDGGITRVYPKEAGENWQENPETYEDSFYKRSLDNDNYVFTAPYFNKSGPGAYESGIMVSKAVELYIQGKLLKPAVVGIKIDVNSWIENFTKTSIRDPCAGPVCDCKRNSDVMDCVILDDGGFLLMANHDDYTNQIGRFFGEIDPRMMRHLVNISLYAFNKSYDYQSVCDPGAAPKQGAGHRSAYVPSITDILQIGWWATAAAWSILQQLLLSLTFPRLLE
Sequence (P54290 945-1091 partner limits assumed, other chains not shown): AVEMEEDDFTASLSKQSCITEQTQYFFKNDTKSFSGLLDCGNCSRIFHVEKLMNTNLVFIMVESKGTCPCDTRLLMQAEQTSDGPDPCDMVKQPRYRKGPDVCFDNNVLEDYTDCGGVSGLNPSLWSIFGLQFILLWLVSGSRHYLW
Assay: Competition binding of [3H]nitrendipine to membrane fragments of rat cardiac muscle
Conditions: PKi Ca
Listing of recorded Ki by entry.
metric: Ki

- CC1=C(C(N)=O)C(c2ccc([N+](=O)[O-])cc2)C(C(=O)NCCCN2CCC(C(=O)O)(c3ccccc3)CC2)=C(C)N1 (centres unmarked): 933 nM
- CCC1=C(C(=O)NC)C(c2ccc([N+](=O)[O-])cc2)C(C(=O)NCCCN2CCC(c3ccccc3)(c3ccccc3)CC2)=C(COCCN)N1 (centres unmarked): 2570 nM
- CCC1=C(C(=O)OC)C(c2ccc([N+](=O)[O-])cc2)C(C(=O)NCCCN2CCC(C(=O)OC)(c3ccccc3)CC2)=C(COCCN)N1 (centres unmarked): 166000 nM
- COC(=O)C1=C(C)NC(CCCCN)=C(C(=O)NCCCN2CCC(c3ccccc3)(c3ccccc3)CC2)C1c1ccc([N+](=O)[O-])cc1 (centres unmarked): 2400 nM
- CCC1=C(C(=O)OC)C(c2ccc([N+](=O)[O-])cc2)C(C(=O)NCCCN2CCC(C(=O)OC)(c3ccccc3)CC2)=C(COCCN=[N+]=[N-])N1 (centres unmarked): 692 nM

###

Structures can show the parent of a compound that is named as a salt.
metric: melting point

• CCOC(=O)C1(c2ccccc2)CCN(CCCNC(=O)C2=C(COCCN=[N+]=[N-])NC(CC)=C(C(=O)OC)C2c2ccc([N+](=O)[O-])cc2)CC1 (stereo not drawn) = 56 to 57 °C
• COc1cc2c(cc1OC)CN(CCCNC(=O)C1=C(C)NC(C)=C(C(N)=O)C1c1ccc([N+](=O)[O-])cc1)CC2 (stereo not drawn) (as salt: hydrochloride) = 180 to 181 °C
• COC(=O)C1=C(C)NC(C)=C(C(=O)NCCN2CCC(c3ccccc3)(c3ccccc3)CC2)C1c1ccc([N+](=O)[O-])cc1 (stereo not drawn) (as salt: hydrochloride) (hydrate or solvate) [Example 52, hydrochloride hemihydrate] = 170 to 171 °C
• CC1=C(C(=O)NCCCN2CCC(c3ccccc3)(c3ccccc3)CC2)C(c2ccc([N+](=O)[O-])cc2)C(C(=O)NC(C)C)=C(C)N1 (stereo not drawn) = 123 to 125 °C
• COC(=O)C1=C(C)NC(C)=C(C(=O)NCCCN2CCC(c3ccccc3)(c3ccccc3)CC2)C1c1ccoc1 (stereo not drawn) = 225 to 226 °C
• CCC1=C(C(=O)NC)C(c2ccc([N+](=O)[O-])cc2)C(C(=O)NCCCN2CCC(c3ccccc3)(c3ccccc3)CC2)=C(CCCCN)N1 (stereo not drawn) = 105 to 109 °C
• CCOC(=O)C1(c2ccccc2)CCN(CCCNC(=O)C2=C(COC)NC(CC)=C(C(=O)O)C2c2ccc([N+](=O)[O-])cc2)CC1 (stereo not drawn) = 116 to 126 °C
• CNC(=O)C1=C(C)NC(C)=C(C(=O)NCCCN2CCC(c3ccccc3)(c3ccccc3)CC2)C1c1ccc2c(c1)OCCO2 (stereo not drawn) = 115 to 116 °C
• CCOC(=O)C1(c2ccccc2)CCN(CCCNC(=O)C2=C(COCCN=[N+]=[N-])NC(CC)=C(C(=O)O)C2c2ccc([N+](=O)[O-])cc2)CC1 (stereo not drawn) = 109 to 110 °C
• CCC1=C(C(=O)NC2CCN(Cc3ccccc3)CC2)C(c2ccc([N+](=O)[O-])cc2)C(C(=O)OC)=C(C)N1 (stereo not drawn) (as salt: hydrochloride) = 221 to 224 °C (dec.)
• COC(=O)C1(c2ccccc2)CCN(CCCNC(=O)C2=C(C)NC(C)=C(C(=O)OCCC#N)C2c2ccc([N+](=O)[O-])cc2)CC1 (stereo not drawn) = 73 to 74 °C
• CCOC(=O)C1(c2ccccc2)CCN(CCCNC(=O)C2=C(COCCN=[N+]=[N-])NC(CC)=C(C(=O)NC)C2c2ccc([N+](=O)[O-])cc2)CC1 (stereo not drawn) = 67 to 68 °C
